Study target: Large T antigen (Simian virus 40)
Sequence (P03070 whole entry): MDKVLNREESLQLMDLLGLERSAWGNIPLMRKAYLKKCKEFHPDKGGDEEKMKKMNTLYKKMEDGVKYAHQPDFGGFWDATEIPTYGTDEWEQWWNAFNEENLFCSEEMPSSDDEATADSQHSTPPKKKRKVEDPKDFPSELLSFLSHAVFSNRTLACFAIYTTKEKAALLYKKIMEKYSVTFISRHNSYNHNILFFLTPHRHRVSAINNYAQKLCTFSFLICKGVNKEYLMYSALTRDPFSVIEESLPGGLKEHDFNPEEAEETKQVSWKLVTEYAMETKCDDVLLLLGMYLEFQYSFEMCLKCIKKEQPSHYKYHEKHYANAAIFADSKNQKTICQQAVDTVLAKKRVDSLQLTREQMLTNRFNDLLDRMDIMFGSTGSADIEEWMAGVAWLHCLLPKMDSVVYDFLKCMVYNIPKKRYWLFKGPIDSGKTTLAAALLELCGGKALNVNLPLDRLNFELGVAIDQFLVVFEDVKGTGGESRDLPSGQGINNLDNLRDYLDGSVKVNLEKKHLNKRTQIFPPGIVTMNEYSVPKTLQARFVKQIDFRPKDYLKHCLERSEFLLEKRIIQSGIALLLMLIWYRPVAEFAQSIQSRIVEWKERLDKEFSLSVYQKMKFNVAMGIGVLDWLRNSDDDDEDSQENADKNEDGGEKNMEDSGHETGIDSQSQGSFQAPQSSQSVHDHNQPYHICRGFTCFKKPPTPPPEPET
Type: functional, Betapolyomavirus macacae
Activity calls are given as the source filed them.
Metric: IC50

input: Quick check: IC50 on Large T antigen (Simian virus 40), item O=C(CCc1ccc(O)c(O)c1)N/N=C/c1cc2c(cc1[N+](=O)[O-])OCO2 ?
output: 13.8 µM (active)

input: Observed IC50 on Large T antigen (Simian virus 40) for N#C/C(=C\c1ccc(O)c(O)c1)C(=O)c1ccc(O)c(O)c1 , please.
output: 0.82 µM (active)

input: Checklist item: IC50 tested on Large T antigen (Simian virus 40), entry CN(C)c1ccc(N/C=C/C(=O)c2ccccc2)cc1 , value?
output: 5.19 µM (active)

input: Record lookup: for Large T antigen (Simian virus 40), what IC50 belongs to N#C/C(=C/c1ccc(O)c(O)c1)c1nc2ccccc2[nH]1 ?
output: 12.3 µM (active)

input: Reported IC50 for Large T antigen (Simian virus 40), given CC(=O)Oc1c(/C=C(\C#N)C(N)=O)[nH]c2ccccc12 ?
output: 22.8 µM (active)

input: Provide the documented IC50 with Large T antigen (Simian virus 40) as the system for CCN(CC)c1ccc(/C=C2\C(=O)N(c3nnc(C)c(O)n3)N=C2C)cc1
output: 54.1 µM (active)

input: What value of IC50 on Large T antigen (Simian virus 40) does COc1cc(/C=C2\SC(NS(=O)(=O)c3ccc(C)cc3)=NC2=O)c([N+](=O)[O-])cc1OC have?
output: 41.3 µM (active)

input: Request - read-out IC50 | tested on Large T antigen (Simian virus 40) | molecule O=c1cc(-c2ccc(O)c(O)c2)oc2c(C3O[C@H](CO)[C@@H](O)[C@H](O)[C@H]3O)c(O)cc(O)c12 (stereo not given in full);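 further: Confirmatory-stage PubChem screen for compounds that inhibit SV40 T antigen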
output: 3.15 µM (active)

input: Query IC50 on Large T antigen (Simian virus 40) for CC(=O)Oc1cc(O)c2c(=O)c(OC(C)=O)c(-c3ccc(OC(C)=O)c(OC(C)=O)c3)oc2c1
output: 14.4 µM (active)

input: Enter reported IC50 observed with Large T antigen (Simian virus 40) for [O-][n+]1ccccc1S
output: 30.3 µM (active)
